Assign PT to each entry below.
- Organism: Rattus norvegicus
- procedure_summary: Open TG-GATES - Regimen: Daily Repeat
- Assay type: toxicity, organism-based, Sprague-Dawley
- Set-up: regimen Daily Repeat, gender Male, age 6 weeks
- measurement_context: in vivo, po, 300 mg/kg, […], tissue Blood, route gavage, dose level Middle, time 14 day
Give bare numbers, in s.

Worked examples follow.
compound	parameter	unit_spec	result
NC(N)=Nc1nc(CSCCC(N)=NS(N)(=O)=O)cs1	PT	s	12.4
CCOc1ccc(NC(=O)CC(C)O)cc1 (stereo not given)	PT	s	13.8
COc1ccc2[nH]c([S+]([O-])Cc3ncc(C)c(OC)c3C)nc2c1 (stereo not given)	PT	s	12.2
COC1=CC(=O)C[C@@H](C)[C@]12Oc1c(Cl)c(OC)cc(OC)c1C2=O	PT	s	12.2

Note: attention shifts to another entry.
In: Name the reported PT value associated with the compound CCOC(=O)CCC(=O)O[C@H]1[C@H](O[C@@H]2[C@@H](C)[C@H](O[C@H]3C[C@@](C)(OC)[C@@H](O)[C@H](C)O3)[C@@H](C)C(=O)O[C@H](CC)[C@@](C)(O)[C@H](O)[C@@H](C)C(=O)[C@H](C)C[C@@]2(C)O)O[C@H](C)C[C@@H]1N(C)C [ERYTHROMYCIN ETHYLSUCCINATE]
Out: 16.1
